These data points were gathered from patent US20260103709A1.

- System: murine cell lines M1011, M158, and 4T1
- Assay Explanation: JQ1 cell viability IC50, murine TNBC cell lines (CellTiter Glo)
- Format: cell-based, mouse
- Applied Conditions: 24 hour treatment, range over murine TNBC cell lines

>  <Mol>
Cc1sc2c(c1C)C(c1ccc(Cl)cc1)=N[C@@H](CC(=O)OC(C)(C)C)c1nnc(C)n1-2

>  <IC50>
0.3 to 0.72 µM

$$$$

---

- System: human cell lines MDA-MB-436, MDA-MB-231, and BT20
- Assay Explanation: JQ1 cell viability IC50, human TNBC cell lines (CellTiter Glo)
- Type: cell-based
- Applied Conditions: 24 hour treatment, range over human TNBC cell lines
Measurement Name: IC50

>  <Mol>
Cc1sc2c(c1C)C(c1ccc(Cl)cc1)=N[C@@H](CC(=O)OC(C)(C)C)c1nnc(C)n1-2

>  <Value>
7 to 32 µM

$$$$
